target: C-X-C chemokine receptor type 4 (Homo sapiens); test: Competitive inhibition of biotinylated TN14003 binding to CXCR4 in human MDA-MB-231 cells preincubated for 10 mins followed by biotinylated-TN14003 addition measured after 30 mins by streptavidin-rhodamine staining based fluorescence microscopic analysis; type: cell-based
Quantity Name: EC (nM)

The examples below pair each entry with its known result.
{"columns": ["Structure String", "EC, nM"],
 "data": [
  ["O=C(NCc1ccc(CNS(=O)(=O)c2ccc(CN3CCCC3)cc2)cc1)c1ccc(F)cc1", 1],
  ["O=C(NCc1ccc(CNS(=O)(=O)c2ccc(-c3ccc(F)cc3)cc2)cc1)c1ccc(F)cc1", 100],
  ["O=C(NCc1ccc(CNS(=O)(=O)c2cccc(Cl)c2)cc1)c1ccc(F)cc1", 1],
  ["O=C(NCc1ccc(CNS(=O)(=O)c2ccc3c(c2)CCO3)cc1)c1ccc(F)cc1", 10]
]}

1 = O=C(NCc1ccc(CNS(=O)(=O)c2ccc([N+](=O)[O-])cc2)cc1)c1ccc(F)cc1
2 = O=C(NCc1ccc(CNS(=O)(=O)c2ccc(F)cc2)cc1)c1ccc(F)cc1
Query: Lower value for measured EC? Options: 1 , 2 Identify your selection by its label.
Result: 2

P = Cc1ccc(S(=O)(=O)NCc2ccc(CNC(=O)c3ccc(F)cn3)cc2)cc1
Q = CCN(CC)Cc1ccc(S(=O)(=O)NCc2ccc(CNC(=O)c3ccc(F)cc3)cc2)cc1
Query: Between the entries labelled P and Q , which has a larger EC value on record? Return value: the label identifying the chosen record.
Result: P
(P: 1000 nM, Q: 1 nM)

* * *

Reported inhibition values for a set of compounds
target: C-X-C chemokine receptor type 4 (Homo sapiens) (UniProt P61073); experiment: Inhibition of CXCR4-mediated chemotaxis in human MDA-MB-231 cells assessed as reduction in CXCL12alpha-induced cell invasion at 100 nM incubated for 22 hrs by hematoxylin/eosin dye-based matrigel assay relative to control
Sequence (P61073 whole entry): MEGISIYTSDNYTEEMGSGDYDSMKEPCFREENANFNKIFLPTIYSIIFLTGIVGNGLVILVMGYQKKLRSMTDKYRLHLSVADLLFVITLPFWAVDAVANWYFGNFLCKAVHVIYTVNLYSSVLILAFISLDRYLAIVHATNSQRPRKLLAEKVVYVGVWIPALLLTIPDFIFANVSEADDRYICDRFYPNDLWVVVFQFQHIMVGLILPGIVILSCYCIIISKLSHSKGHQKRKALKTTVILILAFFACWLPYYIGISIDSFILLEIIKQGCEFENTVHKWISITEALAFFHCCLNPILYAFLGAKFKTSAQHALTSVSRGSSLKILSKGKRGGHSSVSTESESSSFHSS
Express it in %; write the number only.

Some solved entries appear below for comparison.
{"columns": ["Structure String", "Study Target", "Quantity Name", "Value Measured"],
 "data": [
  ["O=C(NCc1ccc(CNS(=O)(=O)c2cccc(Cl)c2)cc1)c1ccc(F)cc1", "C-X-C chemokine receptor type 4 (Homo sapiens) (UniProt P61073)", "inhibition", 95],
  ["O=C(NCc1ccc(CNS(=O)(=O)c2ccc(CN3CCOCC3)cc2)cc1)c1ccc(F)cc1", "C-X-C chemokine receptor type 4 (Homo sapiens) (UniProt P61073)", "inhibition", 82],
  ["O=C(NCc1ccc(CNS(=O)(=O)c2ccc3c(c2)CCO3)cc1)c1ccc(F)cc1", "C-X-C chemokine receptor type 4 (Homo sapiens) (UniProt P61073)", "inhibition", 83],
  ["O=C(NCc1ccc(CNS(=O)(=O)c2cccc(C(F)(F)F)c2)cc1)c1ccc(F)cc1", "C-X-C chemokine receptor type 4 (Homo sapiens) (UniProt P61073)", "inhibition", 93]
]}

Here is the next item to consider.
Query: Return reported inhibition; argument: O=C(NCc1ccc(CNS(=O)(=O)c2ccc(CN3CCCC3)cc2)cc1)c1ccc(F)cc1
Result: 92

* * *

biological target: C-X-C chemokine receptor type 4 (Homo sapiens) (UniProt P61073); assay: Competitive inhibition of biotinylated TN14003 binding to CXCR4 in human MDA-MB-231 cells preincubated for 10 mins followed by biotinylated-TN14003 addition measured after 30 mins by streptavidin-rhodamine staining based fluorescence microscopic analysis; format: cell-based
Quantity Name: EC (nM)

Reference set (2 entries):
{"columns": ["Structure String", "EC, nM"],
 "data": [
  ["O=C(NCc1ccc(CNS(=O)(=O)c2ccc(F)c(F)c2)cc1)c1ccc(F)cc1", 10],
  ["O=C(NCc1ccc(CNS(=O)(=O)c2cccc3ccccc23)cc1)c1ccc(F)cc1", 1000]
]}

P = O=C(NCc1ccc(CNS(=O)(=O)c2ccccc2F)cc1)c1ccc(F)cc1
Q = O=C(NCc1ccc(CNS(=O)(=O)c2cccc(F)c2)cc1)c1ccc(F)cc1
R = O=C(NCc1ccc(CNS(=O)(=O)c2cccc(C(F)(F)F)c2)cc1)c1ccc(F)cc1
Query: Please list these in order of increasing EC. Thank you! Dear reader, please state the labels in the requested order.
Result: P, R, Q
(P: 10 nM, R: 100 nM, Q: 1000 nM)
